Experimental system: Gonadotropin-releasing hormone receptor (Homo sapiens)
Test method notes: Human gonadotropin-releasing hormone receptor (GnRHR) small molecule agonists, calcium flux assay in GnRHR-HEK293 cells (AID 1920063); further: nearly all actives have a fitted effect of over 35% in size
Protocol conditions: calcium flux fluorescence, agonist mode; series mostly up to 57.6 µM
Calls of active or inactive are those of the source. The call rests on the fitted dose curve.
Permitted responses: active, inactive

Answered cases to consult:
CC(C)=CC1C(C(=O)OCN2C(=O)C3=C(CCCC3)C2=O)C1(C)C (stereo unspecified) | inactive
Cl/C=C\CCl | inactive
CCN(CC)N=O | inactive
CCCN(CCOc1c(Cl)cc(Cl)cc1Cl)C(=O)n1ccnc1 | inactive
O=S1OCC2C(CO1)C1(Cl)C(Cl)=C(Cl)C2(Cl)C1(Cl)Cl (stereo unspecified) | inactive
OC(c1ccc(Cl)cc1)(c1cncnc1)c1ccccc1Cl (stereo unspecified) | inactive
CC1CC(CC2CCC(N)C(C)C2)CCC1N (stereo unspecified) | inactive
Nc1ccc(-c2ccccc2)cc1 | inactive
COS(=O)(=O)OC | inactive
CC(C)OC(=O)Nc1ccccc1 | inactive

-- ask Query: recorded result category for `Cc1cc(-c2cc(C)c(N)c(C)c2)cc(C)c1N` in this test
-- reply inactive

-- ask Query: recorded result category for `CCCCON=O` in this test
-- reply inactive

-- ask Query: recorded result category for `N#CC(c1ccccc1)c1ccccc1` in this test
-- reply inactive

-- ask Query: recorded result category for `N#CCCCl` in this test
-- reply inactive

-- ask Query: recorded result category for CC(O)CCO (stereo unspecified) in this test
-- reply inactive

###

Test method notes: G protein-coupled receptor (GPCR) small molecule agonists, calcium flux assay: HEK293 wild type cell line counter screen (AID 1920065)
Protocol conditions: HEK293 WT calcium flux, fluorescence, agonist mode; series mostly up to 57.6 µM
Active and inactive are the calls of the source. The call rests on the fitted dose curve.
Measured parameter: activation

Some solved entries appear below for comparison.
CN(C)c1ccc(N(C)C)cc1 | inactive
Cc1ccc(O)c(C)c1 | inactive
CCCCCCCCn1sccc1=O | inactive
CCC1(c2ccc(N)cc2)CCC(=O)NC1=O (centres undefined) | inactive
O=P(O)(Oc1ccccc1)Oc1ccccc1 | inactive

-- ask Report activation for `O=[N+]([O-])CCO` please.
-- reply inactive

-- ask Report activation for CCOC(=O)C1OC1(C)c1ccccc1 (centres undefined) please.
-- reply inactive

-- ask Report activation for `Nc1ncc([N+](=O)[O-])s1` please.
-- reply inactive

-- ask Report activation for `Oc1cc(Cl)ccc1Oc1ccc(Cl)cc1Cl` please.
-- reply inactive

###

Experimental system: Beta-2 adrenergic receptor (Homo sapiens)
Test method notes: Adrenergic beta2 receptor (ADRB2) small molecule antagonists, cell-based qHTS assay (AID 1963592); further: nearly all actives have a fitted effect of over 50% in size; further: potency means the concentration at half of the fitted maximal effect
Protocol conditions: CHO-ADRB2 cells, isoproterenol-stimulated cAMP HTRF ratio, 0.5 h; series mostly up to 92.4 µM
Inconclusive results are not listed. Activity calls are given as the source filed them. The call rests on the fitted dose curve.
Measured parameter: Potency

Some solved entries appear below for comparison.
O=C(O)CC(O)(CC(=O)O)C(=O)O | inactive
CCOP(=S)(OCC)SCSc1cc(Cl)ccc1Cl | inactive
O=C(O)Cc1ccccc1 | inactive
CN=C=S | inactive

-- ask Report Potency for `[CH3][Sn]([Cl])([Cl])[Cl]` please.
-- reply inactive

-- ask Report Potency for O=P(OCC(Br)CBr)(OCC(Br)CBr)OCC(Br)CBr (stereo not drawn) please.
-- reply inactive

-- ask Report Potency for `Oc1cc(Cl)ccc1Oc1ccc(Cl)cc1Cl` please.
-- reply 52.6 µM (active)

-- ask Report Potency for `CCNc1nc(Cl)nc(NC(C)C)n1` please.
-- reply inactive

###

Experimental system: Muscarinic acetylcholine receptor M1 (Homo sapiens)
Test method notes: Cholinergic receptor muscarinic 1 (CHRM1) small molecule agonists, cell-based qHTS assay (AID 1963589); further: nearly all actives have a fitted effect of over 35% in size
Protocol conditions: CHRM1-CHO cells, agonist mode, calcium flux fluorescence; series mostly up to 76.8 µM
Activity calls are given as the source filed them. Calls come from the whole dose curve.
Measured parameter: activation

Some solved entries appear below for comparison.
O=C(Cl)OCc1ccccc1 | inactive
CCOc1nc(F)cc2nc(S(=O)(=O)Nc3c(Cl)cccc3Cl)nn12 | inactive
O=[N+]([O-])c1c(Cl)c(Cl)c(Cl)c(Cl)c1Cl | inactive
O=C(NC(=O)c1c(F)cccc1F)Nc1ccc(Cl)cc1 | inactive
Cc1coc2c1CCC(C)C2 (configuration not stated) | inactive

Next item in the queue.
-- ask # query: activation | item `CN(C)c1ccc(N=O)cc1` | system: Muscarinic acetylcholine receptor M1 (Homo sapiens)
-- reply inactive

###

Experimental system: Gonadotropin-releasing hormone receptor (Homo sapiens) (UniProt P30968)
Sequence (P30968 whole entry, looked up): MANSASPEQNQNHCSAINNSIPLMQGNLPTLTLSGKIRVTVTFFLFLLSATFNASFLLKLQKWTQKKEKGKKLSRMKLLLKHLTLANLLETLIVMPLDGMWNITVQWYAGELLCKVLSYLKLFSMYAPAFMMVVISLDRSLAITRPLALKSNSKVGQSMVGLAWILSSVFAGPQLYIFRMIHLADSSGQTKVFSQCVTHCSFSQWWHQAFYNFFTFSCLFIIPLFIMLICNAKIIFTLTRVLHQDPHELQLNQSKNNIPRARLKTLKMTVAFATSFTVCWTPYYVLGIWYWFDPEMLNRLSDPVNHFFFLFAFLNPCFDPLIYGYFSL
Test method notes: Human gonadotropin-releasing hormone receptor (GnRHR) small molecule agonists, calcium flux assay in GnRHR-HEK293 cells (AID 1920063); further: nearly all actives have a fitted effect of over 35% in size
Protocol conditions: calcium flux fluorescence, agonist mode; series mostly up to 57.6 µM
Activity calls are given as the source filed them. Calls come from the whole dose curve.
Measured parameter: outcome

Some solved entries appear below for comparison.
C=CCN=C=S | inactive
COP(=O)(NC(C)=O)SC (configuration not stated) | inactive
CC(C)(C)OOC(=O)c1ccccc1 | inactive
COC(=O)Nc1cccc(OC(=O)Nc2cccc(C)c2)c1 | inactive

-- ask Report outcome for `CC(Cl)(Cl)C(=O)O` please.
-- reply inactive

-- ask Report outcome for CCCC(C)(COC(N)=O)COC(=O)NC(C)C (configuration not stated) please.
-- reply inactive

-- ask Report outcome for `Cl` please.
-- reply inactive

-- ask Report outcome for `O=C1C=CC(=O)C=C1` please.
-- reply inactive

###

Test method notes: Nuclear factor erythroid 2-related factor 2/antioxidant responsive element (Nrf2/ARE) small molecule agonists: qHTS cell viability counter screen in human keratinocytes (AID 1919968); further: nearly all actives have a fitted effect of over 55% in size
Protocol conditions: KeratinoSens HaCaT ARE cells viability, CellTiter-Fluor, 24 h; series mostly up to 92.4 µM
Results filed as inconclusive are left out. Active and inactive are the calls of the source. Calls follow the shape of the dose curve; as a rule, active = well fitted cell-killing curve with a large enough effect in the repeat runs; inconclusive = weak or mixed curves, or effect the other way; inactive = flat fitted curve, though single readings scatter.
Permitted responses: TRUE for active, FALSE for inactive

Answered cases to consult:
Cc1ccc(N)cc1C | FALSE
Nc1ccccc1Cl | FALSE
CCNc1nc(NC(C)C)nc(OC)n1 | FALSE
NCCc1ccc(O)cc1 | FALSE
C[C@H]1C(=O)O[C@@H]2CCN3CC=C(COC(=O)[C@](C)(O)[C@]1(C)O)[C@H]23 | FALSE
CCCCON=O | FALSE
C[C@]12CCC(=O)C=C1CC[C@@H]1[C@@H]2CC[C@@]2(C)[C@H]1CC[C@]2(C)O | FALSE
C[C@]12CCC(=O)C(O)=C1CC[C@@H]1[C@@H]2CC[C@]2(C)C(=O)CC[C@@H]12 | FALSE

-- ask Query: recorded result category for O=P1(N(CCCl)CCCl)NCCCO1 (stereo not drawn) in this test
-- reply FALSE

-- ask Query: recorded result category for CC1(C)C(C=C(Cl)Cl)C1C(=O)OC(C#N)c1cccc(Oc2ccccc2)c1 (stereo not drawn) in this test
-- reply FALSE

-- ask Query: recorded result category for `C[C@]12CC[C@H]3[C@@H](CCC4=CC(=O)CC[C@@H]43)[C@@H]1CC[C@@H]2O` in this test
-- reply FALSE

-- ask Query: recorded result category for `CC(C)Nc1ccc(Nc2ccccc2)cc1` in this test
-- reply TRUE

-- ask Query: recorded result category for CNC(=O)NC(O)C(Cl)(Cl)Cl (stereo not drawn) in this test
-- reply FALSE

-- ask Query: recorded result category for CCC(C)(C#N)N=NC(C)(C#N)CC (stereo not drawn) in this test
-- reply FALSE

-- ask Query: recorded result category for `C=CCSSCC=C` in this test
-- reply FALSE

-- ask Query: recorded result category for `CC(=O)/C=C/c1ccccc1` in this test
-- reply FALSE

-- ask Query: recorded result category for `CNC(=O)Oc1c(C(C)(C)C)cc(C)cc1C(C)(C)C` in this test
-- reply FALSE

-- ask Query: recorded result category for `CC(C)c1ccc(OP(=O)(Oc2ccc(C(C)C)cc2)Oc2ccc(C(C)C)cc2)cc1` in this test
-- reply FALSE

-- ask Query: recorded result category for `CC(C)(N)Cc1ccccc1Cl` in this test
-- reply FALSE

-- ask Query: recorded result category for `OCCSSCCO` in this test
-- reply FALSE

-- ask Query: recorded result category for `Nc1c(Cl)c(Cl)nc(C(=O)O)c1Cl` in this test
-- reply FALSE

-- ask Query: recorded result category for `CC(C)c1cccc(C(C)C)c1O` in this test
-- reply FALSE

-- ask Query: recorded result category for `c1ccc2c(c1)CCCC2` in this test
-- reply FALSE

###

Experimental system: 5-hydroxytryptamine receptor 2A (Homo sapiens) (UniProt P28223)
Sequence (P28223 whole entry, looked up): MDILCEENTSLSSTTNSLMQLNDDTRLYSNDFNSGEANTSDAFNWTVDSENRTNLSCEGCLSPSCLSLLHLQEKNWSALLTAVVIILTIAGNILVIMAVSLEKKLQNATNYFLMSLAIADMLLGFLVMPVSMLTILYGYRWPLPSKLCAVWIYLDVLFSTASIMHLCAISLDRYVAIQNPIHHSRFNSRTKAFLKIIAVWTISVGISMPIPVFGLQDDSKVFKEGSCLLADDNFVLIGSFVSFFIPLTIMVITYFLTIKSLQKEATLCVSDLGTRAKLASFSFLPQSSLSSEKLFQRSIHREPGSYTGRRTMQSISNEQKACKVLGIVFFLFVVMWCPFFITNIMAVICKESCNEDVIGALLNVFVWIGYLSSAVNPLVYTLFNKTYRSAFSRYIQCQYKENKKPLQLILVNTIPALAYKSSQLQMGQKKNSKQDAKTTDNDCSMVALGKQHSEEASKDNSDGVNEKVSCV
Test method notes: 5-hydroxytryptamine receptor 2A (HTR2A) small molecule antagonists, cell-based qHTS assay (AID 1963586); further: nearly all actives have a fitted effect of over 45% in size
Protocol conditions: HTR2A-CHO cells, DOI-induced calcium flux, fluorescence; series mostly up to 61.5 µM
Records with an inconclusive call do not appear. The source made the active and inactive calls. The call rests on the fitted dose curve.
Permitted responses: active, inactive

CCCC(=O)Cl | inactive
C=C(C)C#N | inactive
CCCC[n+]1ccc(C)cc1 | inactive
CC(C)N1C(=O)c2ccccc2NS1(=O)=O | inactive
c1cc2c(c(N3CCNCC3)c1)OCCO2 | active
O=C1C2CC=CCC2C(=O)N1SC(Cl)(Cl)Cl (stereo unspecified) | inactive

# input for lookup
-- ask Query: recorded result category for `COc1ccc(N)cc1` in this test
-- reply inactive

Entry source: PubChem BioAssay (Tox21)
